Tested on: HepG2
Assay: Cytotoxicity against human HepG2 cells after 96 hrs by MTT assay
Assay type: functional, cell-based
Details: HepG2, 96 h
Catalogue of IC50 values
Give your result in µg/mL as a bare value.

Recorded IC50, per entry:
substance_smiles=Cc1[nH]nc(NN=C2C(=O)CCCC2=O)c1/N=N/c1c(C)n(C)n(-c2ccccc2)c1=O readout_kind=IC50 uom=µg/mL result_value=16.2
substance_smiles=CCOC(=O)c1nnc2c(/N=N/c3c(C)n(C)n(-c4ccccc4)c3=O)c(C)nn2c1N readout_kind=IC50 uom=µg/mL result_value=268
substance_smiles=Cc1nn2c(nnc3c(N)c(C#N)c(N)nc32)c1/N=N/c1c(C)n(C)n(-c2ccccc2)c1=O readout_kind=IC50 uom=µg/mL result_value=203

I would be grateful if you could share the reported IC50 for Cc1nn2c3c(nnc2c1/N=N/c1c(C)n(C)n(-c2ccccc2)c1=O)C(=O)CCC3 .
55.3

I would be grateful if you could share the reported IC50 for CC(=N)/C(C#N)=N\Nc1c(C)n(C)n(-c2ccccc2)c1=O .
8.3
